The measured values listed here are drawn from paper PMC3885546.

Biological target: Pf Tyr160Phe PNP (Plasmodium falciparum, UniProt Q8T9Z7, Y160F)
Construct: made in house; host or cells: Escherichia coli Top 10
Sequence (Q8T9Z7 whole entry Y160F): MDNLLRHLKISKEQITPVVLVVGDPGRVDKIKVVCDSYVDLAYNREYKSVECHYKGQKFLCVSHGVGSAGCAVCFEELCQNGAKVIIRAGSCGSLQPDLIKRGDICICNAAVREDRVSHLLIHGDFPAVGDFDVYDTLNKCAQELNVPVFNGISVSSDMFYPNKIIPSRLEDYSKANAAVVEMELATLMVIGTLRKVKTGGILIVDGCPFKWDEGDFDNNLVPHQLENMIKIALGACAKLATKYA
Experiment: Inhibition by immucillins (initial and slow onset)
Assay type: biochemical
Settings: initial
PROPERTY MEASURED: Ki (nM)

INSERT INTO assay_data (molecular_string, reported_result) VALUES
  ('O=c1[nH]cnc2c([C@@H]3N[C@H](CO)[C@@H](O)[C@H]3O)c[nH]c12', 0.93);

---

Target: Pf V66I:V73I:Y160F PNP (Plasmodium falciparum, UniProt Q8T9Z7, V66I/V73I/Y160F)
Sequence (Q8T9Z7 whole entry V66I/V73I/Y160F): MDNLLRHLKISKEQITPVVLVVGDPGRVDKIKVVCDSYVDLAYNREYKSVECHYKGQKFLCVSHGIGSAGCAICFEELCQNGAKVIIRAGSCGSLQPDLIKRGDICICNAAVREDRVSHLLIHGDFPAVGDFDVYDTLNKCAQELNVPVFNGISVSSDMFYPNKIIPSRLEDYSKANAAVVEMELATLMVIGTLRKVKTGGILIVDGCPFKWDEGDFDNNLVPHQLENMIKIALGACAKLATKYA
Test: Inhibition by immucillins (initial and slow onset)
Conditions: initial
PROPERTY MEASURED: Ki (nM)

INSERT INTO measurements (molecular_string, assayed_system, reported_result) VALUES
  ('O=c1[nH]cnc2c([C@@H]3N[C@H](CO)[C@@H](O)[C@H]3O)c[nH]c12', 'Pf V66I:V73I:Y160F PNP (Plasmodium falciparum, UniProt Q8T9Z7, V66I/V73I/Y160F)', 3.6);
